- measured.target: rat GluN1/GluN2C (Rattus norvegicus, UniProt Q00961)
- Sequence (Q00961 20-1237, other chains not shown): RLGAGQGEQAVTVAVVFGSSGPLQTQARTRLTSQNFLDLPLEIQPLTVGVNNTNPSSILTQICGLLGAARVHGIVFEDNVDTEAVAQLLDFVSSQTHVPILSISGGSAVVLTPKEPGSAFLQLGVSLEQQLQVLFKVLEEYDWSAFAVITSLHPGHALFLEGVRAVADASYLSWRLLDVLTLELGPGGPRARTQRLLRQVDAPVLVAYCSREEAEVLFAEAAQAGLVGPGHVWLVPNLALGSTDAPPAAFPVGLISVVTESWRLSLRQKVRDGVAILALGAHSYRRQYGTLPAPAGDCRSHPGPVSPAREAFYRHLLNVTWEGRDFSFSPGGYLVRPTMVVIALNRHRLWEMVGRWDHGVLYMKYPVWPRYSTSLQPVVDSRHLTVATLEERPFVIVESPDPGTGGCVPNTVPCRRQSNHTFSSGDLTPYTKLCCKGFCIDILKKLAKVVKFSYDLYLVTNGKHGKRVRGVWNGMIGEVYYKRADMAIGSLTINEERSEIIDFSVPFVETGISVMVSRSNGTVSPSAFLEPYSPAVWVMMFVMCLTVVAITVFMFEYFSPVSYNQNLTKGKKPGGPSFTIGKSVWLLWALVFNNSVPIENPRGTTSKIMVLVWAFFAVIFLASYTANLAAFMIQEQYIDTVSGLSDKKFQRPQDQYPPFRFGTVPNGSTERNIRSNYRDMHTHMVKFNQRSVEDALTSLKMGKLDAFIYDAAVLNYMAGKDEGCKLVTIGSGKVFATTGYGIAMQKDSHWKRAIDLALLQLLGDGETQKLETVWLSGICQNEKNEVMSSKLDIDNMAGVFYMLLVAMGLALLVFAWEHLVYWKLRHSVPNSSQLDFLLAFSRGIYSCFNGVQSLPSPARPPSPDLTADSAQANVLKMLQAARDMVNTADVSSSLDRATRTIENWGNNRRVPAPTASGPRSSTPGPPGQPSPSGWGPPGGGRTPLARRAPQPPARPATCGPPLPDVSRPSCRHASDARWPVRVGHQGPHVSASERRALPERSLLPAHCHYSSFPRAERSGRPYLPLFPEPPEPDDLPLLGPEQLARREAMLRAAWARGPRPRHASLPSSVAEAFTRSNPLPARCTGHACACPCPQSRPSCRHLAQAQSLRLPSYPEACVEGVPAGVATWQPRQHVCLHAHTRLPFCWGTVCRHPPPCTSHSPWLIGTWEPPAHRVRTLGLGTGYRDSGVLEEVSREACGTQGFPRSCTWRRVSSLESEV
- test.name: Two-electrode voltage clamp recordings in Xenopus laevis oocytes, potentiation of GluN1/GluN2C
- Type: cell-based
- condition.context: maximal response, current without potentiator = 100%

{"columns": ["compound", "GluN2C Max %, %"],
 "data": [
  ["COc1ccc(OCC2c3sccc3CCN2C(=O)c2ccc(Cl)s2)cc1 (stereo not shown)", 269],
  ["COc1ccc(OCC2c3occc3CCN2C(=O)c2cccc(Cl)c2)cc1 (stereo not shown)", 353],
  ["COc1ccc(OCC2c3sccc3CCN2C(=O)c2cccc(Cl)c2)cc1 (stereo not shown)", 288],
  ["COc1ccc(OCC2c3cnsc3CCN2C(=O)c2cccc(Cl)c2)cc1 (stereo not shown)", 194],
  ["COc1ccc(OCC2c3sccc3CCN2C(=O)/C=C/C(F)(F)F)cc1 (stereo not shown)", 282],
  ["COc1ccc(OCC2c3cccn3CCN2C(=O)c2cccc(Cl)c2)cc1 (stereo not shown)", 312],
  ["COc1ccc(OCC2c3ccsc3CCN2C(=O)c2cccc(Cl)c2)cc1 (stereo not shown)", 320]
]}

---

- measured.target: rat GluN1/GluN2D (Rattus norvegicus)
- Sequence (Q62645 28-1323, other chains not shown): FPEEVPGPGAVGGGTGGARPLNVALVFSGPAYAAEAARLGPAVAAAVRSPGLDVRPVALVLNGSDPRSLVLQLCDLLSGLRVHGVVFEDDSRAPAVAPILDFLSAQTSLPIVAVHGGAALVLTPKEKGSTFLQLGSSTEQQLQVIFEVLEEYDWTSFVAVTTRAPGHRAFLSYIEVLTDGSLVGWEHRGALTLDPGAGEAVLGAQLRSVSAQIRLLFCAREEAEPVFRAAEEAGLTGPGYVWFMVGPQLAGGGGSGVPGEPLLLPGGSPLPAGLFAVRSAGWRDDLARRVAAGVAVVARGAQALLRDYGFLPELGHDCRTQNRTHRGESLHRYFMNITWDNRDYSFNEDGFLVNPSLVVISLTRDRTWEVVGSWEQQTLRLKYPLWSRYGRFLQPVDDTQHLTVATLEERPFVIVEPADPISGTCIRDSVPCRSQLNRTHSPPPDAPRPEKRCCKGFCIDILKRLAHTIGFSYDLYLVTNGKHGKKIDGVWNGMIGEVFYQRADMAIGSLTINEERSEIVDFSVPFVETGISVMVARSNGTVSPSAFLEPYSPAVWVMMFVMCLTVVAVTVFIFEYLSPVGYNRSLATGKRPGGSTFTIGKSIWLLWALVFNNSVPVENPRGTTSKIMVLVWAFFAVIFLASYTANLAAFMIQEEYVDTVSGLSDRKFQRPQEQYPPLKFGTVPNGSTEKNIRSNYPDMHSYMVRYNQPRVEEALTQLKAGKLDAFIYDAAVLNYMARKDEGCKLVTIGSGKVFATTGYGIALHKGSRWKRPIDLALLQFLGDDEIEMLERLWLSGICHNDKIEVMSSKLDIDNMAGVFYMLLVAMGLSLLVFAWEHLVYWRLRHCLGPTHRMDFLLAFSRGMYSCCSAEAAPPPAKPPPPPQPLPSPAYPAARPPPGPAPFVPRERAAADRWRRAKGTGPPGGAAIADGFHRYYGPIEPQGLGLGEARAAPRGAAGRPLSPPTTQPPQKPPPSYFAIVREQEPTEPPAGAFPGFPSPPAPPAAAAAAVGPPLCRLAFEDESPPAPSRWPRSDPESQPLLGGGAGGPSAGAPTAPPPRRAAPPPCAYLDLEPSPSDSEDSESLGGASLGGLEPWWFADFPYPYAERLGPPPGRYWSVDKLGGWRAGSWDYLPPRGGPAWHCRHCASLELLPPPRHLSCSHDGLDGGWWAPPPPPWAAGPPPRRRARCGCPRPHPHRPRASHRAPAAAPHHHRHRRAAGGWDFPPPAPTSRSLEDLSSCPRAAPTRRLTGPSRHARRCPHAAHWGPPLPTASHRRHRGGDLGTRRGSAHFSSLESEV
- test.name: Two-electrode voltage clamp recordings in Xenopus laevis oocytes, potentiation of GluN1/GluN2D
- Type: cell-based
- condition.context: maximal response, current without potentiator = 100%

{"columns": ["compound", "GluN2D Max %, %"],
 "data": [
  ["COc1ccc(OCC2c3sccc3CCN2C(=O)c2ccc(Cl)s2)cc1 (stereo not shown)", 352],
  ["COc1ccc(OCC2c3sccc3CCN2C(=O)c2cccc(Cl)c2)cc1 (stereo not shown)", 391],
  ["COc1ccc(OCC2c3sccc3CCN2C(=O)/C=C/C(F)(F)F)cc1 (stereo not shown)", 317],
  ["COc1ccc(OCC2c3occc3CCN2C(=O)c2cccc(Cl)c2)cc1 (stereo not shown)", 527],
  ["COc1ccc(OCC2c3cnsc3CCN2C(=O)c2cccc(Cl)c2)cc1 (stereo not shown)", 238],
  ["COc1ccc(OCC2c3ccsc3CCN2C(=O)c2cccc(Cl)c2)cc1 (stereo not shown)", 369],
  ["COc1ccc(OCC2c3cccn3CCN2C(=O)c2cccc(Cl)c2)cc1 (stereo not shown)", 374]
]}

---

- test.name: In vivo pharmacokinetics, plasma and brain, IP 10 mg/kg
- Design: species or system C57BL/6 mice
- condition.context: male, C57BL/6; Plasma IP 10 mg/kg fed, mouse, mean; read-out: Cmax
Property: Cmax; scope: individual compounds
endpoint: Cmax (nM)

{"columns": ["compound", "endpoint", "obs.value"],
 "data": [
  ["COc1ccc(OCC2c3cccn3CC(=O)N2Cc2cccc(C(F)(F)F)c2)cc1 (racemic)", "Cmax", 1500],
  ["COc1ccc(OCC2c3cccn3CCN2C(=O)c2cccc(Cl)c2)cc1 (centres unmarked)", "Cmax", 2100]
]}

---

Property: GluN2C (max) (%); scope: individual molecules
- measured.target: rat GluN1/GluN2C (Rattus norvegicus)
- test.name: Two-electrode voltage clamp recordings in Xenopus laevis oocytes, potentiation of GluN1/GluN2C
- Type: cell-based
endpoint: GluN2C (max) (%)

{"columns": ["molecule", "measured.target", "endpoint", "obs.value"],
 "data": [
  ["COc1ccc(OCC2c3cc(OC)c(OC)cc3CCN2C(=O)c2cccc(Cl)c2)cc1 (stereo not drawn)", "rat GluN1/GluN2C (Rattus norvegicus)", "GluN2C (max) (%)", "233%"],
  ["COc1ccc(OC[C@H]2c3cccn3CC(=O)N2Cc2cccc(C(F)(F)F)c2)cc1 [R-(+)-1180-447]", "rat GluN1/GluN2C (Rattus norvegicus)", "GluN2C (max) (%)", "276%"],
  ["COc1ccc(OC[C@H]2c3cccn3CCN2C(=O)c2cccc(C(F)(F)F)c2)cc1 [R-(+)-1180-450]", "rat GluN1/GluN2C (Rattus norvegicus)", "GluN2C (max) (%)", "464%"]
]}
